# Tested on: Staphylococcus aureus
# Protocol summary: In vivo efficacy of compounds administered subcutaneously in mouse intraperitoneal infections
# Cond: sc, 168 h; mouse i.p. Staphylococcus aureus infection; subcutaneous; dosed at infection and 4 h post-infection; 7 days; read-out: ED50 (50 percent effective dose)
Met if ED50 is below 20 mg/kg. Not met if not; exact matches included in Not met.

Some solved entries appear below for comparison.
COC(=O)NCC1CN(c2ccc(C(C)=O)cc2)C(=O)O1 (centres unmarked) = Met
CC(=O)NCC1CN(c2ccc(SC(C)=O)cc2)C(=O)O1 (single isomer, unassigned) = Met
CC(=O)NCC1CN(c2ccc(C(=O)C3CCCCC3)cc2)C(=O)O1 (centres unmarked) = Not met
COC(=O)NCC1CN(c2ccc(S(N)(=O)=O)cc2)C(=O)O1 (centres unmarked) = Met
CC(=O)NCC1CN(c2ccc(C(C)=NNC(C)=O)cc2)C(=O)O1 (single isomer, unassigned) [Example 132] = Met

Consider now this further molecule.
Query: Please state whether ED50 is below 20 mg/kg for CSc1ccc(N2CC(CNC(C)=O)OC2=O)cc1 (single isomer, unassigned)
Result: Met

* * *

Please go through the items and note down their MIC.
# Tested on: Staphylococcus epidermidis
# Protocol summary: In vitro broth dilution minimal inhibitory concentration (standard microdilution method)
# Assay type: cell-based
# Cond: 24 h, Mueller-Hinton broth, 24-hour, read-out: Microdilution Broth MIC
Answers are plain numbers, in µg/mL.

CC(=O)NCC1CN(c2ccc(C#CCO)cc2)C(=O)O1 (centres unmarked) = 12.5
CC(=O)c1ccc(N2CC(CNC(=O)CCl)OC2=O)cc1 (centres unmarked) = 1
CC(=O)NCC1CN(c2ccc(C[S+](C)[O-])cc2)C(=O)O1 (single isomer, unassigned) = 16
C=CC(=O)NCC1CN(c2ccc(C(C)=O)cc2)C(=O)O1 (centres unmarked) = 12.5

From here, focus on the item given below.
Lab note: measured MIC of CSc1ccc(N2CC(CNC=O)OC2=O)cc1 (centres unmarked) was 25

* * *

# Test system: Staphylococcus aureus
# Protocol summary: In vivo efficacy of compounds administered subcutaneously in mouse intraperitoneal infections
# Cond: sc, 168 h; mouse i.p. Staphylococcus aureus infection; subcutaneous; dosed at infection and 4 h post-infection; 7 days; read-out: ED50 (50 percent effective dose)
Assay readout: ED50 (mg/kg)
One number for each entry, in mg/kg.

CC(=O)c1ccc(N2CC(CNC(=O)CCCl)OC2=O)cc1 (stereo not drawn) [Example 95] = 7.7
CC(=O)NCC1CN(c2ccc(S(N)(=O)=O)cc2)C(=O)O1 (single isomer, unassigned) [Example 113] = 9.6
CC(=O)NCC1CN(c2ccc(CC(C)O)cc2)C(=O)O1 (stereo not drawn) [Example 100] = 10.5
NCC1CN(c2ccc(S(N)(=O)=O)cc2)C(=O)O1 (single isomer, unassigned) [Example 12] = 89.8

From here, focus on the item given below.
Lab note: measured ED50 of CC(=O)c1ccc(N2CC(CNC(=O)CCl)OC2=O)cc1 (stereo not drawn) [Example 174] was 12.2

* * *

# System: Escherichia coli
# Protocol summary: In vivo efficacy of compounds administered subcutaneously in mouse intraperitoneal infections
# Cond: sc, 168 h; mouse i.p. Escherichia coli infection; subcutaneous; dosed at infection and 4 h post-infection; 7 days; read-out: ED50 (50 percent effective dose)
Assay readout: ED50

CC(=O)NCC1CN(c2ccc(C[S+](C)[O-])cc2)C(=O)O1 (single isomer, unassigned) = > 120 mg/kg
C=C(C)c1ccc(N2CC(CNC(C)=O)OC2=O)cc1 (stereo not shown) = > 120 mg/kg
CC(=O)NCC1CN(c2ccc(C(C)=NNC(C)=O)cc2)C(=O)O1 (stereo not shown) [Example 36] = > 120 mg/kg
CCCCc1ccc(N2CC(CNC(C)=O)OC2=O)cc1 (stereo not shown) = > 120 mg/kg

Give ED50 for each listed item.
1. COC(=O)NCC1CN(c2ccc(S(=O)(=O)N=[N+]=[N-])cc2)C(=O)O1 (stereo not shown)
2. CS(=O)(=O)NCC1CN(c2ccc(S(C)(=O)=O)cc2)C(=O)O1 (single isomer, unassigned)
3. CC(C)(C)C(=O)NCC1CN(c2ccc(S(C)(=O)=O)cc2)C(=O)O1 (stereo not shown)

Result:
> 120 mg/kg
> 100 mg/kg
> 120 mg/kg

Give ED50 for each listed item.
1. CC(=O)N(CC1CN(c2ccc(S(C)(=O)=O)cc2)C(=O)O1)C1CCCCC1 (racemic)
2. CC(=O)NCC1CN(c2ccc(I)cc2)C(=O)O1 (single isomer, unassigned)
3. CC(=O)NCC1CN(c2ccc(Br)cc2)C(=O)O1 (stereo not shown)
4. COCC(=O)NCC1CN(c2ccc(S(C)(=O)=O)cc2)C(=O)O1 (stereo not shown)
5. CCC(=O)c1ccc(N2CC(CNC(C)=O)OC2=O)cc1 (stereo not shown)

Result:
["> 120 mg/kg", "> 120 mg/kg", "> 40 mg/kg", "12.9 mg/kg", "42.1 mg/kg"]

Give ED50 for each listed item.
1. CC(=O)NCC1CN(c2ccc(S(N)(=O)=O)cc2)C(=O)O1 (single isomer, unassigned)
2. CC(=O)c1ccc(N2CC(CNC(=O)CCCl)OC2=O)cc1 (stereo not shown)
3. CC(=O)c1ccc(N2CC(CNC(=O)CCl)OC2=O)cc1 (stereo not shown)
4. CS(=O)(=O)c1ccc(N2CC(CNC(=O)CCCl)OC2=O)cc1 (stereo not shown)

Result:
1. 11.7 mg/kg
2. 60.7 mg/kg
3. > 120 mg/kg
4. 46.7 mg/kg
